Value source: patent US20240391948A1

Provide the reported IC50 of each item.
test system: U937 cells (human monocytic cell line); experiment: BzATP-induced IL-1β secretion inhibition in PMA-differentiated U937 cells; format: cell-based; conditions: U-937, U937 cells differentiated with PMA, read-out: IL-1β production inhibition grade (IC50)

Task: # query: IC50 of entry CC(C)C[C@@H](CS(=O)(=O)O)NC(=O)CC[C@@H](C)[C@H]1CC[C@H]2[C@@H]3CC[C@@H]4C[C@H](O)CC[C@]4(C)[C@H]3CC[C@]12C [NC10086]
Result: ≥ 200 nM

Task: Fill in the blank: the reported IC50 of C[C@H](CCC(=O)N(CCS(=O)(=O)O)Cc1cccnc1)[C@H]1CC[C@H]2[C@@H]3CC[C@@H]4CC(=O)CC[C@]4(C)[C@H]3CC[C@]12C [NC30036] is ____.
Result: ≥ 200 nM

Task: Consider the compound C[C@H](CCC(=O)N1CC(S(=O)(=O)O)C1)[C@H]1CC[C@H]2[C@@H]3CC[C@@H]4C[C@H](O)CC[C@]4(C)[C@H]3C[C@H](O)[C@]12C [NC10028] and give its measured IC50.
Result: 50 to 100 nM

Task: Using the record for CC(C)[C@H](CS(=O)(=O)O)NC(=O)CC[C@@H](C)[C@H]1CC[C@H]2[C@@H]3CC[C@@H]4C[C@H](O)CC[C@]4(C)[C@H]3CC[C@]12C [NC10073] , report its IC50.
Result: 50 to 100 nM

Task: # lookup: IC50 of CC[C@H]1[C@@H](O)[C@@H]2[C@H](CC[C@]3(C)[C@@H]([C@H](C)CCC(=O)NC4(CS(=O)(=O)O)CC4)CC[C@@H]23)[C@@]2(C)CC[C@@H](O)C[C@@H]12 [NC40032]
Result: ≥ 200 nM

Task: Item under review: C[C@H](CCC(=O)NC1(CS(=O)(=O)O)CC1)[C@H]1CC[C@H]2[C@@H]3[C@H](O)C[C@@H]4C[C@H](O)CC[C@]4(C)[C@H]3C[C@H](O)[C@]12C [NC20032] . Reported IC50?
Result: < 50 nM

Task: What IC50 value was documented for this compound, C[C@H](CCC(=O)NC[C@@H](C)S(=O)(=O)O)[C@H]1CC[C@H]2[C@@H]3CC[C@@H]4CC(=O)CC[C@]4(C)[C@H]3CC[C@]12C [NC30023] ?
Result: ≥ 200 nM

Task: Which IC50 is reported for this compound? C[C@H](CCC(=O)N[C@H](CS(=O)(=O)O)c1ccccc1)[C@H]1CC[C@H]2[C@@H]3CC[C@@H]4C[C@H](O)CC[C@]4(C)[C@H]3C[C@H](O)[C@]12C [NC10034]
Result: 50 to 100 nM

Task: Fill in: IC50 of C[C@H](CCC(=O)N[C@H](CO)CS(=O)(=O)O)[C@H]1CC[C@H]2[C@@H]3[C@H](O)C[C@@H]4C[C@H](O)CC[C@]4(C)[C@H]3C[C@H](O)[C@]12C [NC20025] is ___
Result: ≥ 200 nM

Task: Look at this compound and give its reported IC50. CC[C@H]1[C@@H](O)[C@@H]2[C@H](CC[C@]3(C)[C@@H]([C@H](C)CCC(=O)N[C@H](CS(=O)(=O)O)C(C)C)CC[C@@H]23)[C@@]2(C)CC[C@@H](O)C[C@@H]12 [NC40016]
Result: ≥ 200 nM
